# procedureText: protein stability index of a GFP-peptide fusion (yeast GPS) (PSI 1-4); higher = more stable; sorted into four equal gates, so the index is relative within each strain
# testSettings: doa10∆
Classify as follows. Reported protein stability index greater than or equal to 3: Y. Reported protein stability index below: N.

sequenceEntry	answerLabel
GIEHFDIPPPAIMKPYY [RPO31]	N
MVATVKRTIRIKTQQHI [TAF14]	N
RYKFPGQQKIILSKKWG [RPL10]	N
VKKAVTVHSKSRTRAHA [RPL19A]	Y
SDKPSLPSAVDGENDKK [YLR335W/NUP2]	Y
GEVVYLRKQKDSSTTSS [ITC1]	N
SCTLLERGHPKDNARIY [POP1]	N
LIELLTQMDGFDQSTNV [RPT3]	N
SIRRQDYINELSNSNRF [REC8]	N
LKNLLRSNFRVNLSQEA [SNU114]	N
PRSPGRSPTRRLELLQL [SMC4]	N

----------
# procedureText: protein stability index of a GFP-peptide fusion (yeast GPS) (PSI 1-4); higher = more stable; sorted into four equal gates, so the index is relative within each strain
# testSettings: ubr1∆
// protein stability index lookup, one value per entry

sequenceEntry	protein stability index
DTYPYLTGEWSTKFDYP [FAS1]	2.94
EYLFKPQLISDKFSPED [ARP7]	2.17
DEFKDITKEVTQVNILK [YIL149C/MLP2]	3.3
VPFESLQGVTYPVLRKL [YIL149C/MLP2]	2.27
VSETPKRIKGLEFSALS [RPO31]	2.97
KTYALESINNVVDQLWS [RPN2]	2.6
NQMGMGTNNGMSMGGGV [YOR098C/NUP1]	3.24
DNSPSEDFMDIPKPRTA [SNF2]	2.77
KYMVKGGLSGEESIKIY [UBP6]	2.67
EFDSTDTSLCINGEPSI [RRI1]	3.24
TTILSFSSPAALMKTLI [NUT1]	1.78
SHFVSAVSTIASISLAI [RPP0]	1.11
FAIRDDRDHINPDDLMK [RPT4]	3.33
TENVAQARIILNHILEK [YGR119C/NUP57]	2.86
ERPPYILNSYGVLKPDI [SIR2]	3.15
NQQQQQQQQQQQQRRQL [GAL11]	2.91
IPATIFDKVIYHLHPTF [TAF14]	2.78
SDGEDGHIPWHILAVKK [SSN2]	3.16
ILQQRSKINSTELLDYA [MED4]	2.97
SKLDYIFKDKEKLVSDL [SMC1]	3.37
LFRAIYLYCLDNNITEM [YCG1]	2.38
AASVIGMLVALGRLSVR [RPC82]	1.24
PNGTKKAYVRLTADYDA [RPL25]	3.34
WSSEFAKWAPTLRTISF [SNF2]	2.47
ITVHAPLLPIVEELMKK [SNU114]	2.7
EDAIHIALLTLKESVEG [PRE8]	2.92
MPPKFDPNEVKYLYLRA [RPL12A]	1.78
ADDHASVQINVAKVDEE [RPS21A]	3.26
GNSERPSAVAGFINQKN [YIL149C/MLP2]	3.03
ARNVQVHQEPYVFNARP [RPS0A]	3.06
RNVGKTLVNKSTGLKNA [RPS1B]	2.96
LEALRQNYRLDGRSFDQ [RRP45]	2.81
MSGRGKGGKGLGKGGAK [HHF1]	3.58
GISRDIKALQDSLFKDV [YML103C/NUP188]	1.77
GLGVNRRILAAAAAAAA [SSN3]	1.95
KMDFSSKEGQYKAKIKE [YIL149C/MLP2]	3.16
RVNLSENTPEPDLPALE [SMC4]	2.83
GSIPVDQVVVRGIDTLQ [RPB3]	2.5
TFLESINGINWRFHTPQ [SIN4]	2.02
GSSAGMNGRSLTYAQQQ [SNF6]	3.24
NWRLVEVGRVVLIKKGQ [RPL14A]	2.19
KDEEIEKLLQQDREITN [MED8]	3.59
KLVTYIVKFKQKEEGRS [YLR335W/NUP2]	3.34
TKGDTSKATGAPSANQG [RTT102]	3.24
RLERRINLTKVTQKDIC [CSI1]	3.29
DSKLLPKNIEPPLTSQY [SWI3]	2.92
SAPAPAAAAPAPVAAAA [FAS2]	3.28
LLNKNTGNNLYDRNSNN [SWI1]	2.9
YDRKKLPRKEVDDVLGG [RPC11]	3.32
GEICKNYELEKIADNIS [YDL116W/NUP84]	3.09
CANKYMTTVSGRDAFHL [RPL10]	1.92
CRVCSSHTGLVRKYDLN [RPS29B]	1.94
INQINEAHPTKVKNFGV [RPL20A]	2.85
ARKELPIFDYIHIDALE [SIR3]	2.5
LEDLFSYRNGMASYMLN [YJR042W/NUP85]	2.42
LAFAKLVHSEYLINGKR [SRP68]	2.53
SGRCDGYILEGEELAFY [RPS8A]	3.36

Provenance of the data: the supplement of paper PMC9732359
